Assay type: in vivo, human
Settings: human, plasma, po, 1500 mg, AUC0−∞, mean (SD); 1500-mg oral MS solution, fasted state
Measured quantity: AUC(0-inf) (ng·h/mL)
Unit ng·h/mL implied. Number only.

# AUC(0-inf) (molecule: Cc1nc(NNC(=O)[C@H](CC2CCCC2)CN(O)C=O)c(F)c(N2CCN3CCOC[C@@H]3C2)n1 [GSK1322322] ) is 69700

* * *

Format: in vivo, human
Conditions: human, plasma, iv, 1500 mg, AUC0−∞, mean (SD); 1500-mg IV MS solution, 60-minute infusion
Measured quantity: AUC(0-inf) (µg·h/mL)
Numbers only here, please. The scale is µg·h/mL.

Cc1nc(NNC(=O)[C@H](CC2CCCC2)CN(O)C=O)c(F)c(N2CCN3CCOC[C@@H]3C2)n1 yielded AUC(0-inf) of 75.4

* * *

Format: in vivo, human
Conditions: human, plasma, po, 1500 mg, Tmax, median (range); 1500-mg oral MS solution, fasted state
Measured quantity: Tmax (min)
Respond with the bare value in min.

Entry Cc1nc(NNC(=O)[C@H](CC2CCCC2)CN(O)C=O)c(F)c(N2CCN3CCOC[C@@H]3C2)n1 ; Tmax = 30

* * *

Format: in vivo, human
Settings: human, plasma, oral, 1500 mg, Cmax, mean (SD); 1500-mg free base tablet, fasted state
Measured quantity: Cmax

Summary for this compound, Cc1nc(NNC(=O)[C@H](CC2CCCC2)CN(O)C=O)c(F)c(N2CCN3CCOC[C@@H]3C2)n1 : Cmax is 17100 ng/mL

* * *

Assay type: in vivo, human
Conditions: human, plasma, iv, 1500 mg, Tmax, median (range); 1500-mg IV MS solution
Measured quantity: Tmax
Could you write the number and then its unit?

Sample Cc1nc(NNC(=O)[C@H](CC2CCCC2)CN(O)C=O)c(F)c(N2CCN3CCOC[C@@H]3C2)n1 ; Tmax observed: 1 h

* * *

Format: in vivo, human
Conditions: human, plasma, iv, 1500 mg, Cmax, mean (SD); 1500-mg IV MS solution
Measured quantity: Cmax

The reported Cmax of the compound Cc1nc(NNC(=O)[C@H](CC2CCCC2)CN(O)C=O)c(F)c(N2CCN3CCOC[C@@H]3C2)n1 [GSK1322322] was 28600 ng/mL

* * *

Type: in vivo, human
Settings: human, plasma, oral, 1500 mg, t1/2, mean (SD); 1500-mg free base tablet, fed state
Measured quantity: half-life (h)
Reply numerically in h, unit not repeated.

half-life reading for Cc1nc(NNC(=O)[C@H](CC2CCCC2)CN(O)C=O)c(F)c(N2CCN3CCOC[C@@H]3C2)n1 [GSK1322322] : 8.7

* * *

Type: in vivo, human
Settings: human, plasma, iv, 1500 mg
Measured quantity: Vd (L)
Write the value in L as a bare number.

Looking up Cc1nc(NNC(=O)[C@H](CC2CCCC2)CN(O)C=O)c(F)c(N2CCN3CCOC[C@@H]3C2)n1 , I see its Vd listed as 69.2

* * *

Format: in vivo, human
Conditions: human, plasma, oral, 1500 mg, t1/2, mean (SD); 1500-mg free base tablet, fasted state
Measured quantity: half-life

For reference, reported half-life for Cc1nc(NNC(=O)[C@H](CC2CCCC2)CN(O)C=O)c(F)c(N2CCN3CCOC[C@@H]3C2)n1 stands at 9.4 h
